Source: ChEMBL document CHEMBL2311412

test: Half life in nude mouse at 10 mg/kg, po by LC/MS/MS analysis; assay type: ADME, organism-based; design: dose 10 mg/kg, route oral; settings: in vivo
MEASUREMENT KIND: half-life (h)
Give the quantity in h, number only.

I am curious: what half-life value has been reported for Cc1cc(OCc2nnc(SC3CCCC3)n2-c2cccnc2)ccc1-c1ccc(S(C)(=O)=O)cc1 ?
6

====

experiment: Intrinsic clearance in human liver microsomes; assay type: ADME, Microsome; conditions: read-out: CLH
MEASUREMENT KIND: CLint scaled
Put down the number, then write its unit next to it.

I am curious: what CLint scaled value has been reported for Cc1cc(OCc2nnc(SC3CCCC3)n2-c2cccnc2)ccc1-c1ccc(S(C)(=O)=O)cc1 ?
400 mL/min/kg
